Taken from ChEMBL document CHEMBL3856280.

- assay comment: Cytotoxicity against human THLE3 cells assessed as reduction in cell viability after 48 hrs by alamar blue assay
- Type: toxicity, cell-based
Criterion: EC50 at 48 h strictly under 40 µM. Met: yes. Not met: no.

Here's what some known entries look like.
O=[N+]([O-])c1ccc(S(=O)(=O)Nc2ccc(-c3nc4cc(NS(=O)(=O)c5ccc([N+](=O)[O-])cc5)ccc4o3)cc2)cc1 = yes
O=S(=O)(Nc1ccc(-c2nc3cc(NS(=O)(=O)c4ccc(F)cc4)ccc3o2)cc1)c1ccc(F)cc1 = yes
O=S(=O)(Nc1ccc(-c2nc3cc(NS(=O)(=O)c4cccc(C(F)(F)F)c4)ccc3o2)cc1)c1cccc(C(F)(F)F)c1 = yes
O=S(=O)(Nc1ccc(-c2nc3cc(NS(=O)(=O)c4ccccc4F)ccc3o2)cc1)c1ccccc1F = no
N#Cc1cccc(S(=O)(=O)Nc2ccc(-c3nc4cc(NS(=O)(=O)c5cccc(C#N)c5)ccc4o3)cc2)c1 = no

Query: Take the molecule O=S(=O)(Nc1ccc(-c2nc3cc(NS(=O)(=O)c4cccc5ccccc45)ccc3o2)cc1)c1cccc2ccccc12 and say whether its EC50 at 48 h is less than 40 µM.
Result: no

Query: Take the molecule O=S(=O)(Nc1ccc(-c2nc3cc(NS(=O)(=O)c4ccc5ncsc5c4)ccc3o2)cc1)c1ccc2ncsc2c1 and say whether its EC50 at 48 h is less than 40 µM.
Result: yes

---

Kindly state pIC50 for each of the entries shown.
- subject of test: HSP60/HSP10 (Homo sapiens, UniProt P10809)
- Sequence (P10809 whole entry): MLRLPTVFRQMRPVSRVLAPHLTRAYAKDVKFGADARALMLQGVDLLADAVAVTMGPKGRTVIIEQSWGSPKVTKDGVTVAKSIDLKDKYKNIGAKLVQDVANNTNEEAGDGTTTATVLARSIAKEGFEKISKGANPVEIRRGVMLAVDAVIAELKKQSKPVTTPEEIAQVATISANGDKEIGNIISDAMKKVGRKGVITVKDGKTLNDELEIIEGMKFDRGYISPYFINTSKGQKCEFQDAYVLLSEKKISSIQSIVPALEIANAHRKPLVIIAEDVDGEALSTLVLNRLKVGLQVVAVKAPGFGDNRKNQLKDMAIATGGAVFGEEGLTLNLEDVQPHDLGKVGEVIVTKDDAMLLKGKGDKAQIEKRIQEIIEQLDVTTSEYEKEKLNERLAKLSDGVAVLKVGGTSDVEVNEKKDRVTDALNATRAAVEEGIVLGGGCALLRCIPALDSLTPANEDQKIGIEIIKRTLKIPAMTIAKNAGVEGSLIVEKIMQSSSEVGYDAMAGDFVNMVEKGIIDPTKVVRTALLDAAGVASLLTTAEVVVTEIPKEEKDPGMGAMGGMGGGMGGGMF
- Sequence (P61604 whole entry, further chain): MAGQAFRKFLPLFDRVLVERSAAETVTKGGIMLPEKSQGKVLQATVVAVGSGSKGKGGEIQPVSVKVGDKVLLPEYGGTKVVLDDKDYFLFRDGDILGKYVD
- assay comment: Inhibition of human mitochondrial HSP60/HSP10 expressed in Escherichia coli DH5alpha/BL21 (DE3) assessed as inhibition of denatured MDH refolding preincubated for 10 mins followed by ATP addition measured after 40 to 60 mins by fluorescence based assay
pIC50: −log10 of the molar value.

O=S(=O)(Nc1ccc(-c2nc3cc(NS(=O)(=O)c4ccccc4O)ccc3o2)cc1)c1ccccc1O = 4.89
O=S(=O)(Nc1ccc(-c2nc3cc(NS(=O)(=O)c4cccc(C(F)(F)F)c4)ccc3o2)cc1)c1cccc(C(F)(F)F)c1 = < 4.00
O=S(=O)(Nc1ccc(-c2nc3cc(NS(=O)(=O)c4cccc5ccccc45)ccc3o2)cc1)c1cccc2ccccc12 = < 4.00
N#Cc1ccc(S(=O)(=O)Nc2ccc(-c3nc4cc(NS(=O)(=O)c5ccc(C#N)cc5)ccc4o3)cc2)cc1 = 4.19

Your task in this section: give pIC50 for each listed record.
1. NCCCC(N)(C(=O)O)C(F)F (stereo unspecified)
2. Cc1cccc(S(=O)(=O)Nc2ccc(-c3nc4cc(NS(=O)(=O)c5cccc(C)c5)ccc4o3)cc2)c1
3. O=C(O)c1cccc(S(=O)(=O)Nc2ccc(-c3nc4cc(NS(=O)(=O)c5cccc(C(=O)O)c5)ccc4o3)cc2)c1
4. O=S(=O)(Nc1ccc(-c2nc3cc(NS(=O)(=O)c4ccccc4)ccc3o2)cc1)c1ccccc1

Result:
1. < 4.00
2. < 4.00
3. 4.09
4. < 4.00

---

Kindly state EC50 at 48 h for each of the entries shown.
- assay comment: Cytotoxicity against HEK293 cells assessed as reduction in cell viability after 48 hrs by alamar blue assay
- Type: toxicity, cell-based
- setup conditions: human

CS(=O)(=O)Nc1ccc(-c2nc3cc(NS(C)(=O)=O)ccc3o2)cc1 = > 100 µM
O=S(=O)(Nc1ccc(-c2nc3cc(NS(=O)(=O)C(F)(F)F)ccc3o2)cc1)C(F)(F)F = > 100 µM

Continue with the compound presented below.
Query: Requested field: EC50 at 48 h. Item: O=C(O)c1cccc(S(=O)(=O)Nc2ccc(-c3nc4cc(NS(=O)(=O)c5cccc(C(=O)O)c5)ccc4o3)cc2)c1
Result: > 100 µM
